system: PfAP2-I AP2 domain 3 (GST-tagged); assay: gcPBM binding intensity (ln(normalized median fluorescence intensity)); higher = stronger DNA binding
The full ranking holds about 25,000 sequences; the median of “ln(normalized median fluorescence intensity)” is about 7.9, and the highest 2% start at about 11. For the sample, the highest values were picked, then their nearest neighbours and some sequences at random.
Rule: gcPBM binding intensity (ln) under 10 gives no, otherwise yes.

These solved cases illustrate the format of a correct answer.
Input Sequence	Label
TAAATATATTTCATGACATGCAACTTGTTTTTTTGT [TGCATGCA_site456]	no
TTTTAAATACTTTATTGTACATTATATATATATATA [XGTACX_site7021]	no
ATATATATAACAAAAGTGCATTAAGGGGATGCTATA	yes

Now look at this entry.
Task item: Check the entry ATAGGCACTTTTTGCACACGTATGAATAACAAAATA [CACACA_site5069] : does gcPBM binding intensity (ln) equal or exceed 10?
Reply: no

Measured values drawn from the supplement of paper PMC11417369 for this set.
